Test system: T-47D breast
PROCEDURE TEXT: NCI-60 one-dose screen, 48 h (100 = growth as untreated, 0 = no growth, -100 = all killed)
APPLIED CONDITIONS: 10 µM unless noted
About 83,000 compounds went through this panel and 20% of them were active in at least one assay; those are over-represented in the sample as a whole.
The reader will find reported growth values listed item by item below.
// note: answer is a bare numeric in %

Per the record, C/C=C(\C)C(C(=O)NC1CCCCC1)N(C(=O)C1CCc2cc(F)ccc2O1)c1ccc([N+](=O)[O-])cc1 (stereo not drawn) has growth of 88.1

---
For this compound ( Cc1ccc2cc3c(NC(=O)c4cccnc4)nn(C)c3nc2c1 ), measured growth is 69.6

Clc1ccc(Nc2ncnc3c2sc2ncccc23)cc1 has a reported growth of 33.5
